# test: chemical genetic growth profiling, strain panel (AID 1159580);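 note: tested at 20 µM; growth read once vehicle control cultures reached saturation at 30 °C; 1 = growth at the plate median or of vehicle wells; lower values mean less growth of the strain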
# run-conditions: S. cerevisiae deletion strains, growth OD, locus YDR195W, strain ref2
Hit rate of the full screen: of about 5,500 compounds, about 2,000 (36%) were called active. About 18% were inconclusive and are not listed. The list shows a part of the results.
recorded-endpoint: normalized growth
Answers are plain numbers.

Use the examples below as a reference point.
Cc1onc(-c2ccccc2)c1-c1ccc(S(N)(=O)=O)cc1	0.963
CCCCC(=O)O[C@]1(C(=O)CO)CCC2C3CCC4=CC(=O)CC[C@]4(C)C3[C@@H](O)C[C@@]21C (stereo not given in full)	0.933

Required: normalized growth, one value per compound below.
1. Cc1nnc(NS(=O)(=O)c2ccc(N)cc2)s1
2. c1ccc2c(CC3=NCCN3)cccc2c1
3. C[C@]12C=CC(=O)C=C1CCC1C2[C@@H](O)C[C@@]2(C)C1CC[C@]2(O)C(=O)CO (stereo not given in full)

Solution:
[0.947, 0.96, 0.969]

====

# test: chemical genetic growth profiling, strain panel (AID 1159580);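 note: tested at 20 µM; growth read once vehicle control cultures reached saturation at 30 °C; 1 = growth at the plate median or of vehicle wells; lower values mean less growth of the strain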
# run-conditions: S. cerevisiae deletion strains, growth OD, locus YHR205W, strain SCH9, hits give low values
The campaign covered roughly 5,500 compounds. About 2,000 (36%) were called active. Not shown: some 18% with an inconclusive outcome. The list shows a part of the results.
Please assign NOT MET whenever normalized growth is at or above 0.8, and MET whenever it is below.

CNC(=O)Sc1c(-c2ccc(Cl)cc2)nn(C(=O)NC)c1SC	MET

Exercise: State whether 0.8 exceeds normalized growth recorded for Clc1ccc(CSc2nccn2-c2cc(Cl)ccc2Cl)cc1 .
Solution: NOT MET

Exercise: State whether 0.8 exceeds normalized growth recorded for O=C(NNc1ccccc1)c1cc(-c2ccc(Cl)cc2)oc1C(F)(F)F .
Solution: MET

Exercise: State whether 0.8 exceeds normalized growth recorded for COc1ccc(Nc2nc(NC(=O)Nc3ccc(Cl)cc3)n[nH]2)cc1 .
Solution: NOT MET

====

# test: chemical genetic growth profiling, strain panel (AID 1159580);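 note: tested at 20 µM; growth read once vehicle control cultures reached saturation at 30 °C; 1 = growth at the plate median or of vehicle wells; lower values mean less growth of the strain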
# run-conditions: S. cerevisiae deletion strains, growth OD, locus YOR290C, strain snf2, hits give low values
In all, about 5,500 compounds went through this assay and about 2,000 (36%) were called active. Roughly 18% stayed inconclusive and do not appear here. The list shows a part of the results.
recorded-endpoint: normalized growth
Numbers only.

Use the examples below as a reference point.
Cc1cc(/C=C/c2ccc3cc(N(C)C)ccc3[n+]2C)c(C)n1-c1ccccc1	0.947
C[C@]12CCC3c4ccc(OC(=O)c5ccccc5)cc4CCC3C1CCC2=O (stereo partly specified)	0.912
C=NC(C(=O)NC1C(=O)N2C1SC(C)(C)C2C(=O)O)c1ccccc1 (stereo unspecified)	0.95
NCCCNCCSP(=O)(O)O	0.965
C[C@]12CCC3c4ccc(O)cc4CCC3C1CCC2=O (stereo partly specified)	0.941

Pending compound:
For reference, reported normalized growth for FC(F)(F)c1cccc(N2CCNCC2)c1 stands at 0.973

====

# test: chemical genetic growth profiling, strain panel (AID 1159580);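 note: tested at 20 µM; growth read once vehicle control cultures reached saturation at 30 °C; 1 = growth at the plate median or of vehicle wells; lower values mean less growth of the strain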
# run-conditions: S. cerevisiae deletion strains, growth OD, locus YDR477W, strain SNF1, hits give low values
Out of some 5,500 compounds screened, about 2,000 (36%) were called active. Roughly 18% stayed inconclusive and do not appear here. Some of the results follow.
For each of the compounds below, state its normalized growth.
Answers are plain numbers.

COc1ccc(-c2cn3cc(C)ccc3n2)cc1	0.975
COc1ccc(-c2csc(-c3cccnc3)n2)cc1	0.894
CC1CCC(C(C)C)C(N(Cc2ccccc2)C(=O)c2ccccc2)C1 (stereo not drawn)	0.98
O=[N+]([O-])c1ccsc1Oc1cccc(C(F)(F)F)c1	0.876
N#Cc1cccc(CSc2nc3ccc(C(F)(F)F)cc3[nH]2)c1	0.903
O=C(Nc1cc(C(F)(F)F)cc(C(F)(F)F)c1)C(Cl)(Cl)Cl	0.921
CC1C(c2ccccc2)N(C)C(c2ccccc2)CC1(O)c1ccc(F)cc1 (stereo not drawn)	0.992
CN(C)c1ccc(/C=C/c2ccc3ccccc3[n+]2C)cc1	0.83

Required: normalized growth, one value per compound below.
1. Cn1nccc1-c1cc(Cl)cc(Cl)c1O
2. FC(F)(F)c1cc(NC(=S)SCCSC(=S)Nc2cc(C(F)(F)F)cc(C(F)(F)F)c2)cc(C(F)(F)F)c1
3. Clc1ccc(-c2cnc(Nc3cc(Cl)cc(Cl)c3)s2)cc1

Solution:
[0.731, 0.951, 0.119]
